system.tested: T1, FOXA2-DBD without wing 2 (human, UniProt Q9Y261 157-239)
T1 sequence: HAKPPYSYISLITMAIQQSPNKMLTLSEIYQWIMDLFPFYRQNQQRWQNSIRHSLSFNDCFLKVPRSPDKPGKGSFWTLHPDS
assay.remarks: ITC
measured.quantity: Kd (µM)
Expressed in µM, but write only the number.

Exercise: Provide Kd value for the following binder: DBE2 (Daf-16 family binding element 2) (dsDNA) DNA 1: TGCAAAATGTAAACAAGACT DNA 2: AGTCTTGTTTACATTTTGCA
Solution: 3.5
